Recorded measurements of Luciferase activity, one per entry
# System under test: VgEcR and RXR heterodimeric receptor (pVgRXR) with pIND/luc in CHO cells (Drosophila melanogaster, UniProt P34021, E282G/G283S/G286V)
# Construct: host or cells: CHO cells (ATCC CCL-61), transiently transfected or stably transformed with pVgRXR
# Sequence (P34021 1-878 E282G/G283S/G286V): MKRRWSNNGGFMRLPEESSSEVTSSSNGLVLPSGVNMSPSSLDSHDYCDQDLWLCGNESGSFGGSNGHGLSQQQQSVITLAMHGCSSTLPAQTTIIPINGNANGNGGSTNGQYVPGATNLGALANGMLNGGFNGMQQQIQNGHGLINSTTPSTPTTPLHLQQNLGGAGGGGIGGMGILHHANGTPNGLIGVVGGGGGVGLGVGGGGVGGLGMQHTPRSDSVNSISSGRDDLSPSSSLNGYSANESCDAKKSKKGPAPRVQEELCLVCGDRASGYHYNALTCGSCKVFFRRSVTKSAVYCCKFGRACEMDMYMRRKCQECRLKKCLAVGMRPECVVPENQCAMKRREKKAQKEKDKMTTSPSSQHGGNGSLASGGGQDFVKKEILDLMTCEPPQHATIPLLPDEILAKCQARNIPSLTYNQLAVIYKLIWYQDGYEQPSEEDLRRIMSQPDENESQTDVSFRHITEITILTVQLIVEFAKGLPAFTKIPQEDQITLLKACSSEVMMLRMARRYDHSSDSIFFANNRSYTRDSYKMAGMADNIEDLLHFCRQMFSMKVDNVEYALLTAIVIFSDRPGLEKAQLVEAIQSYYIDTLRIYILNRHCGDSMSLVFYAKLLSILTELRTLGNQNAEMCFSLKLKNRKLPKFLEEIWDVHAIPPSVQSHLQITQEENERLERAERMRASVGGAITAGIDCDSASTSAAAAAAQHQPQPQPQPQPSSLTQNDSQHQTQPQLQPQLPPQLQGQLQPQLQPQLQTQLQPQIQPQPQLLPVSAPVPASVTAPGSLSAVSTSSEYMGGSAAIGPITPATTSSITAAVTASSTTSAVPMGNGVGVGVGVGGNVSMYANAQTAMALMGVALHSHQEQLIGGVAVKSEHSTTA
# Sequence (P19793 1-462 partner): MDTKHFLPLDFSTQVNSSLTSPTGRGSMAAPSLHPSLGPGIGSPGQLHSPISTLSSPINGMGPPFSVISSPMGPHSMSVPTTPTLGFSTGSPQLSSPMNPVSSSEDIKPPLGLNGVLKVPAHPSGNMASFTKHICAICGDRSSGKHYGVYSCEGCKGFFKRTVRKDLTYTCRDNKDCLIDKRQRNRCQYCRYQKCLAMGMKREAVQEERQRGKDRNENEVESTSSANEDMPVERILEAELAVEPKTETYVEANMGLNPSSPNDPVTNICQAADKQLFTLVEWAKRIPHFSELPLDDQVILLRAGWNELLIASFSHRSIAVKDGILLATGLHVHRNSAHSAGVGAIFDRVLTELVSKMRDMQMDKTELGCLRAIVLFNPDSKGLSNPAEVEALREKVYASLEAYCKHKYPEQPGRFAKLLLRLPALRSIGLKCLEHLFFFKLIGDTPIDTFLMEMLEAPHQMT
# Experimental details: Luciferase gene activation in transiently transfected CHO cells
# Format: cell-based
# Reported conditions: ligand 10 μM, average of duplicate samples, no ligand = 42
Entry format: amount then unit.

Known results for molecules:
CCc1c(OC)cccc1C(=O)NN(C(=O)c1cc(F)cc(F)c1)C(C)(C)C    251 RLU
CC(C)(C)N(NC(=O)c1ccccc1)C(=O)c1ccccc1 [CE-2, 1,2-dibenzoyl-1-tert-butyl-hydrazine, reference compound]    36 RLU
CC(C)CC[C@@H](O)[C@](C)(O)[C@H]1CC[C@@]2(O)C3=CC(=O)[C@@H]4C[C@@H](O)[C@@H](O)C[C@]4(C)[C@H]3CC[C@]12C [CE-4, ponasterone A, reference compound]    418 RLU

Incoming: # get_value(readout='Luciferase activity', item= Cc1cc(C)cc(C(=O)N(NC(=O)c2ccc3c(c2C)OCCO3)C(C)(C)C)c1 )
Outgoing: 204 RLU
